- Experiment Notes: Inhibition of perforin (unknown origin)-mediated 51Cr-labelled human Jurkat cell lysis preincubated with protein for 30 mins followed by cell addition measured after 4 hrs by gamma counting method
Metric: pIC50
In textbook form, pIC50 equals minus log to base ten of the concentration in mol/L.

Solved entries (count: 5):
CN1Cc2cc(-c3ccc(-c4cncc(NS(=O)(=O)c5cccc(Cl)c5)c4)s3)ccc2C1=O 5.62
Cc1ncsc1S(=O)(=O)Nc1cncc(-c2ccc(-c3ccc4c(c3)CN(C)C4=O)s2)c1 4.94
CN1Cc2cc(-c3ccc(-c4cncc(NS(=O)(=O)c5ccc(Cl)cc5)c4)s3)ccc2C1=O 5.27
CN1Cc2cc(-c3ccc(-c4cncc(N(C)S(=O)(=O)c5ccc(F)cc5F)c4)s3)ccc2C1=O 4.79
CN1Cc2cc(-c3ccc(-c4cncc(NS(=O)(=O)c5ccccc5Cl)c4)s3)ccc2C1=O 5.40

**Query** Consider the molecule COc1cccc(S(=O)(=O)Nc2cncc(-c3ccc(-c4ccc5c(c4)CN(C)C5=O)s3)c2)c1 and give its recorded pIC50.
**Result** 5.59

**Query** Consider the molecule Cc1ccc(NS(=O)(=O)c2ccccn2)cc1-c1ccc(-c2ccc3c(c2)CN(C)C3=O)s1 and give its recorded pIC50.
**Result** 4.81

**Query** Consider the molecule CN1Cc2cc(-c3ccc(-c4cncc(NS(=O)(=O)c5ccccc5S(C)(=O)=O)c4)s3)ccc2C1=O and give its recorded pIC50.
**Result** 5.17

**Query** Consider the molecule CN1Cc2cc(-c3ccc(-c4cncc(NS(=O)(=O)c5ccc(-c6cnco6)cc5)c4)s3)ccc2C1=O and give its recorded pIC50.
**Result** 5.52

====

- Experiment Notes: Inhibition of perforin (unknown origin)-mediated 51Cr-labelled human Jurkat cell lysis preincubated with protein for 30 mins followed by cell addition measured after 4 hrs by gamma counting method
Metric: log10 of IC50 (log10 of the value in µM)
Friendly reminder: values = log10 of IC50, unit µM.

Solved entries (count: 5):
CN1Cc2cc(-c3ccc(-c4cnc(Cl)c(NS(=O)(=O)c5ccc(F)cc5F)c4)s3)ccc2C1=O 0.01
COC(=O)c1ccccc1S(=O)(=O)Nc1cncc(-c2ccc(-c3ccc4c(c3)CN(C)C4=O)s2)c1 0.46
CN1Cc2cc(-c3ccc(-c4cncc(NS(=O)(=O)c5ccc(Cl)cc5Cl)c4)s3)ccc2C1=O 1.18
COC(=O)c1cccc(S(=O)(=O)Nc2cncc(-c3ccc(-c4ccc5c(c4)CN(C)C5=O)s3)c2)c1 0.89
CN1Cc2cc(-c3ccc(-c4cncc(NS(=O)(=O)c5cccnc5)c4)s3)ccc2C1=O 1.18

**Query** Consider the molecule Cc1cc(F)ccc1S(=O)(=O)Nc1cncc(-c2ccc(-c3ccc4c(c3)CN(C)C4=O)s2)c1 and give its recorded log10 of IC50.
**Result** 0.74

**Query** Consider the molecule CN1Cc2cc(-c3ccc(-c4cncc(NS(=O)(=O)c5ccccc5Br)c4)s3)ccc2C1=O and give its recorded log10 of IC50.
**Result** 0.42

====

- Experiment Notes: Inhibition of perforin (unknown origin)-mediated 51Cr-labelled human Jurkat cell lysis preincubated with protein for 30 mins followed by cell addition measured after 4 hrs by gamma counting method
Metric: log10(IC50) (log10 of the value in µM)
Friendly reminder: values = log10 of IC50, unit µM.

Solved entries (count: 2):
CN1Cc2cc(-c3ccc(-c4cnc(F)c(NS(=O)(=O)c5ccc(F)cc5F)c4)s3)ccc2C1=O 0.30
CN1Cc2cc(-c3ccc(-c4cncc(NS(=O)(=O)c5cccc(Cl)c5F)c4)s3)ccc2C1=O 1.11

**Query** Consider the compound CN1Cc2cc(-c3ccc(-c4cncc(NS(=O)(=O)c5ccc(Br)cc5Br)c4)s3)ccc2C1=O and give its recorded log10(IC50).
**Result** 0.46

**Query** Consider the compound CN1Cc2cc(-c3ccc(-c4cncc(NS(=O)(=O)c5ccc(F)cc5)c4)s3)ccc2C1=O and give its recorded log10(IC50).
**Result** 0.98

**Query** Consider the compound CN1Cc2cc(-c3ccc(-c4ccnc(NS(=O)(=O)c5ccc(F)cc5F)c4)s3)ccc2C1=O and give its recorded log10(IC50).
**Result** 0.67

====

- Experiment Notes: Inhibition of perforin (unknown origin)-mediated 51Cr-labelled human Jurkat cell lysis preincubated with protein for 30 mins followed by cell addition measured after 4 hrs by gamma counting method
Metric: IC50

Solved entries (count: 4):
CN1Cc2cc(-c3ccc(-c4cncc(NS(=O)(=O)c5ccc6c(c5)OCCO6)c4)s3)ccc2C1=O > 20 µM
Cc1ccc(NS(=O)(=O)c2ccc(F)cc2F)cc1-c1ccc(-c2ccc3c(c2)CN(C)C3=O)s1 > 20 µM
CN1Cc2cc(-c3ccc(-c4cncc(NS(=O)(=O)c5ccc(S(C)(=O)=O)cc5)c4)s3)ccc2C1=O > 20 µM
CN1Cc2cc(-c3ccc(-c4cncc(NS(=O)(=O)c5cc(Br)cc(C(F)(F)F)c5)c4)s3)ccc2C1=O > 20 µM

**Query** Consider the compound CN1Cc2cc(-c3ccc(-c4ccc(NS(=O)(=O)c5ccc(F)cc5F)nc4)s3)ccc2C1=O and give its recorded IC50.
**Result** > 20 µM

**Query** Consider the compound CN1Cc2cc(-c3ccc(-c4cncc(NC(=O)c5ccc(F)cc5F)c4)s3)ccc2C1=O and give its recorded IC50.
**Result** > 20 µM

**Query** Consider the compound CN1Cc2cc(-c3ccc(-c4cncc(NS(=O)(=O)c5ccc(I)cc5)c4)s3)ccc2C1=O and give its recorded IC50.
**Result** 5 µM

**Query** Consider the compound CN1Cc2cc(-c3ccc(-c4cncc(NS(=O)(=O)c5ccc(C(F)(F)F)cc5Cl)c4)s3)ccc2C1=O and give its recorded IC50.
**Result** > 20 µM

**Query** Consider the compound CN1Cc2cc(-c3ccc(-c4cccc(S(=O)(=O)Nc5ccccn5)c4)s3)ccc2C1=O and give its recorded IC50.
**Result** 8.92 µM

**Query** Consider the compound CN1Cc2cc(-c3ccc(-c4cncc(NS(=O)(=O)c5c(F)cc(F)cc5F)c4)s3)ccc2C1=O and give its recorded IC50.
**Result** 1.76 µM

====

- Experiment Notes: Inhibition of perforin (unknown origin)-mediated 51Cr-labelled human Jurkat cell lysis preincubated with protein for 30 mins followed by cell addition measured after 4 hrs by gamma counting method
Catalogue of compounds with associated IC50
Give just the numeric value; µM need not be written.

Solved entries (count: 2):
CN1Cc2cc(-c3ccc(-c4cncc(NS(=O)(=O)c5cccc(Br)c5)c4)s3)ccc2C1=O 2.11
COc1ccc(-c2ccc(-c3ccc4c(c3)CN(C)C4=O)s2)cc1S(=O)(=O)Nc1ccccn1 9.68

**Query** Consider the compound CN1Cc2cc(-c3ccc(-c4cncc(NS(=O)(=O)c5ccccc5OC(F)(F)F)c4)s3)ccc2C1=O and give its recorded IC50.
**Result** 17.7

**Query** Consider the compound CN1Cc2cc(-c3ccc(-c4cncc(NS(=O)(=O)c5ccc(F)c(C(F)(F)F)c5)c4)s3)ccc2C1=O and give its recorded IC50.
**Result** 3.75

====

- Experiment Notes: Inhibition of perforin (unknown origin)-mediated 51Cr-labelled human Jurkat cell lysis preincubated with protein for 30 mins followed by cell addition measured after 4 hrs by gamma counting method
Metric: IC50 (µM)
Give just the numeric value; µM need not be written.

Solved entries (count: 2):
COc1ccccc1S(=O)(=O)Nc1cncc(-c2ccc(-c3ccc4c(c3)CN(C)C4=O)s2)c1 14.8
COc1ncc(-c2ccc(-c3ccc4c(c3)CN(C)C4=O)s2)cc1NS(=O)(=O)c1ccc(F)cc1F 3.56

Note: attention shifts to another entry.
**Query** Consider the compound CN1Cc2cc(-c3ccc(-c4cncc(NS(=O)(=O)c5ccc(Cl)c(Cl)c5)c4)s3)ccc2C1=O and give its recorded IC50.
**Result** 1.32

====

- Experiment Notes: Inhibition of perforin (unknown origin)-mediated 51Cr-labelled human Jurkat cell lysis preincubated with protein for 30 mins followed by cell addition measured after 4 hrs by gamma counting method
Catalogue of compounds with associated IC50

Solved entries (count: 2):
CN1Cc2cc(-c3ccc(-c4cncc(NS(=O)(=O)c5ccc(C(F)(F)F)cc5)c4)s3)ccc2C1=O > 20 µM
CN1Cc2cc(-c3ccc(-c4cc(NS(=O)(=O)c5ccccn5)ccc4F)s3)ccc2C1=O > 20 µM

Note: attention shifts to another entry.
**Query** Consider the compound CN1Cc2cc(-c3ccc(-c4cncc(NS(=O)(=O)c5cc(C(F)(F)F)cc(C(F)(F)F)c5)c4)s3)ccc2C1=O and give its recorded IC50.
**Result** > 20 µM
